Item-by-item account of pIC50
Target: H^+ K^+ -ATP-ase (Sus scrofa)
Construct: on partially purified pig's microsome specimen
Sequence (P19156 2-1034 limits assumed): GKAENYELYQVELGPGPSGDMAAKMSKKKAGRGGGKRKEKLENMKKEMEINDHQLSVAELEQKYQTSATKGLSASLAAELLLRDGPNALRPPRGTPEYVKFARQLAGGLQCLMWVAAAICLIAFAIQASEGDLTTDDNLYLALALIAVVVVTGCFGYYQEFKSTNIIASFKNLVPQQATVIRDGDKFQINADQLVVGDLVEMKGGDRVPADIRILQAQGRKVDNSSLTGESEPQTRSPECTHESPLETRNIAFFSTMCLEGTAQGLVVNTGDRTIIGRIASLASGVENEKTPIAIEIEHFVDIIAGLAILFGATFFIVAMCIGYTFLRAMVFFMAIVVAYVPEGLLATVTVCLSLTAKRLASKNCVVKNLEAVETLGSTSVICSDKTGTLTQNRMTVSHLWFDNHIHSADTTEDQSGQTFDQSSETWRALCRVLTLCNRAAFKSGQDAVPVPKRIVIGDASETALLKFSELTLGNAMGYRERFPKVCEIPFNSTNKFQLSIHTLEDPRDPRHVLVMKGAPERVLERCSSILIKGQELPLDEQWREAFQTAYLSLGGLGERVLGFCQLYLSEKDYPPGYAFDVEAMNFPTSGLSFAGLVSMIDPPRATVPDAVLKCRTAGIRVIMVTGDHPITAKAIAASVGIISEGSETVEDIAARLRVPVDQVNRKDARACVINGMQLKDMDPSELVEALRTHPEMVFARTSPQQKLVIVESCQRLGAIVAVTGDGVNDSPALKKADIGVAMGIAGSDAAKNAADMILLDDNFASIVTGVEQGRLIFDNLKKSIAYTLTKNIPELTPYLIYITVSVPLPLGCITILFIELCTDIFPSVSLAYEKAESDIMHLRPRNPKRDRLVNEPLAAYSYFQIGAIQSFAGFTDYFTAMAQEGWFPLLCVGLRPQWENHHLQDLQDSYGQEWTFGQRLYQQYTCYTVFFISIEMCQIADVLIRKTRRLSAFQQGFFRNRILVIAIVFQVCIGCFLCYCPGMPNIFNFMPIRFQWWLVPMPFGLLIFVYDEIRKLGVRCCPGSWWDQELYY
Sequence (P18434 whole entry partner): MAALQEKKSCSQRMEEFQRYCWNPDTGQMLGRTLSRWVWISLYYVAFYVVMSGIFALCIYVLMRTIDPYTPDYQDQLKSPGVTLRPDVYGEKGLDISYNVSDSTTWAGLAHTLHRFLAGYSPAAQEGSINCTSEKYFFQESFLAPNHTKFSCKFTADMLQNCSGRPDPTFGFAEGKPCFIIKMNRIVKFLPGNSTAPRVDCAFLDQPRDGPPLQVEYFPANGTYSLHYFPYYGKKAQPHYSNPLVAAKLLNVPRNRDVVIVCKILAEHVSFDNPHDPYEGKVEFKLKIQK
Assay: H+/K+-ATP-ase inhibition on partially purified pig's microsome specimen (method of Rabon and Sachs)
Give only the number. pIC50 is defined as minus log10 of concentration in molar units.

Worked examples, 3 compounds total:
>>> recorded_value("CCN(CC)CCO/N=C1/C(=C/c2ccc(Cl)c(Cl)c2)CCCC1C (racemic)")
4.77
>>> recorded_value("CCCC1CCCCC(=C\\c2ccc(Cl)cc2)/C1=N/OCC(O)CN1CCCC1 (racemic)")
5.00
>>> recorded_value("CCCCCCC1CCCC(=C\\c2ccccc2OC)/C1=N/OCCN(CC)CC (racemic)")
5.30

Okay, next one:
Give its pIC50 value. Item: CCCC1CCCCC(=C\c2ccc(Cl)cc2)/C1=N/OCCN(CC)CC (racemic)
5.15

Where these numbers come from: patent US5523303A
